Target: P2Y purinoceptor 2 (Homo sapiens)
Sequence (P41231 whole entry): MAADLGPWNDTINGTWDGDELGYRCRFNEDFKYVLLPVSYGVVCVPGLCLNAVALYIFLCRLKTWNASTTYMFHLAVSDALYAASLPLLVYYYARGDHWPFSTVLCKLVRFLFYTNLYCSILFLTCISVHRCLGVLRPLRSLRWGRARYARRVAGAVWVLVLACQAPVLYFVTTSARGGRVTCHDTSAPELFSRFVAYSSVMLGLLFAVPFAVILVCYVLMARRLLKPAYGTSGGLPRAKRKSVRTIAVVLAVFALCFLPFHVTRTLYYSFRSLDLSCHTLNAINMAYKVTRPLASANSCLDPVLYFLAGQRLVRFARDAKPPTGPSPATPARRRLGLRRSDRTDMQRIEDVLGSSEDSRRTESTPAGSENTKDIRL
Experiment: Agonist activity at human P2Y2 receptor expressed in human 1321N1 cells assessed as [3H]inositol phosphate accumulation by scintillation proximity assay
Endpoint Name: pEC50
Please express pEC50 as -log10 of the molar concentration.

{"columns": ["Molecule", "pEC50"],
 "data": [
  ["O=c1[nH]c(=S)ccn1[C@@H]1O[C@H](COP(=O)(O)OP(=O)(O)OP(=O)(O)OP(=O)(O)OC[C@H]2O[C@@H](n3ccc(=S)[nH]c3=O)[C@H](O)[C@@H]2O)[C@@H](O)[C@H]1O", 7.52],
  ["O=c1ccn([C@@H]2O[C@H](COP(=O)(O)OP(=O)(O)C(Cl)(Cl)P(=O)(O)OP(=O)(O)OC[C@H]3O[C@@H](n4ccc(=O)[nH]c4=O)[C@H](O)[C@@H]3O)[C@@H](O)[C@H]2O)c(=O)[nH]1", 5.11],
  ["O=c1ccn([C@@H]2O[C@H](COP(=O)(O)OP(=O)(O)OP(=O)(O)OP(=O)(O)O[C@H]3O[C@H](CO)[C@H](O)[C@H](O)[C@H]3O)[C@@H](O)[C@H]2O)c(=O)[nH]1", 5.31]
]}

Query :: Please give the documented pEC50 of CSc1ccn([C@@H]2O[C@H](COP(=O)(O)OP(=O)(O)OP(=O)(O)O)[C@@H](O)[C@H]2O)c(=S)n1
Result :: 6.04

Query :: Input O=c1ccn([C@@H]2O[C@H](COP(=O)(O)OP(=O)(O)OP(=O)(O)OP(=O)(O)O[C@H]3O[C@H](CO)[C@@H](O)[C@H](O)[C@H]3O)[C@@H](O)[C@H]2O)c(=O)[nH]1 , output reported pEC50.
Result :: 6.52

Query :: Input N#CCCOP(=O)(O)OP(=O)(O)OP(=O)(O)OP(=O)(O)OC[C@H]1O[C@@H](n2ccc(=O)[nH]c2=O)[C@H](O)[C@@H]1O , output reported pEC50.
Result :: 5.77

Query :: Supply recorded pEC50 for O=c1ccn([C@@H]2O[C@H](COP(=O)(O)OP(=O)(O)OP(=O)(O)OP(=O)(O)O)[C@@H](O)[C@H]2O)c(=S)[nH]1 here.
Result :: 6.22

Query :: Give the reported pEC50 for this molecule. O=c1ccn([C@@H]2O[C@H](COP(=O)(O)OP(=O)(O)OP(=O)(O)OP(=O)(O)O)[C@@H](O)[C@H]2O)c(=O)[nH]1
Result :: 5.58

Query :: Supply recorded pEC50 for COP(=O)(O)OP(=O)(O)OP(=O)(O)OP(=O)(O)OC[C@H]1O[C@@H](n2ccc(=O)[nH]c2=O)[C@H](O)[C@@H]1O here.
Result :: 5.40

Query :: Please give the documented pEC50 of O=c1ccn([C@@H]2O[C@H](COP(=O)(O)OP(=O)(O)C(Cl)(Cl)P(=O)(O)O)[C@@H](O)[C@H]2O)c(=S)[nH]1
Result :: 5.60

Query :: Output measured pEC50 for this item: Nc1nc2c(ncn2[C@H]2C[C@H](O)[C@@H](COP(=O)(O)OP(=O)(O)OP(=O)(O)OP(=O)(O)OC[C@H]3O[C@@H](n4ccc(=O)[nH]c4=O)[C@H](O)[C@@H]3O)O2)c(=O)[nH]1
Result :: 6.85

Query :: Please supply the value of reported pEC50 for the item O=c1ccn([C@@H]2O[C@H](COP(=O)(O)OP(=O)(O)OP(=O)(O)O)[C@@H](O)[C@H]2O)c(=O)[nH]1 [URIDINE TRIPHOSPHATE]
Result :: 7.22
